test.system: CYP2D6 (Homo sapiens)
Sequence (P10635 whole entry): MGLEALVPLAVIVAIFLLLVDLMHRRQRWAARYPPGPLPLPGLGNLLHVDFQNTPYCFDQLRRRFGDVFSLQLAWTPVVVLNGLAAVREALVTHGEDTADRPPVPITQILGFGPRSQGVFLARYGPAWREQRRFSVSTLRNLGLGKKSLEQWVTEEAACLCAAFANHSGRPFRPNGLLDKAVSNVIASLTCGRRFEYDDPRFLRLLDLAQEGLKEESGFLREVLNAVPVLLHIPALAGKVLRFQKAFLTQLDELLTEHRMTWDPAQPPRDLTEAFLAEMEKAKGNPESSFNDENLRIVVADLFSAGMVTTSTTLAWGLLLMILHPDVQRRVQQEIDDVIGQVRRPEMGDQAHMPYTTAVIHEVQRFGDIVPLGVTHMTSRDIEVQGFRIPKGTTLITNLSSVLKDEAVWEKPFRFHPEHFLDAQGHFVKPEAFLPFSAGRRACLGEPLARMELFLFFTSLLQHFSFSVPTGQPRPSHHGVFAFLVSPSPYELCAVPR
value.type: pIC50
// scale note: pIC50 = -log10(conc_M); give the bare number

smiles.repr	value.type	data.value
CC1(C)CCN(C(=O)C[C@H]2C[C@@H](Nc3c(C#N)cnc4[nH]ccc34)C2)CC1	pIC50	4.60

Consider the record given below.
pIC50 for CC1CCN(C(=O)C[C@H]2C[C@@H](Nc3c(C#N)cnc4[nH]ccc34)C2)CC1 ?
4.60

====

System: IL-6 induced Phospho-STAT3 (Tyr705) in TF-1 cells
protocol.notes: In vitro cellular pSTAT3 assay, IL-6 stimulated TF-1 cells
Assay type: cell-based
condition.label: Homo sapiens, TF-1, read-out: Cellular Assay: IC50 IL6
value.type: IC50
Could you write the number and then its unit?

IC50 for N#CC[C@H](C1CCCC1)n1cc(-c2ncnc3[nH]ccc23)cn1 [Ruxolitinib, reference compound] ?
8 nM
